Assay: method code SF-HPLC, from DOI: 10.1248/cpb.39.1032
Assay endpoint: logP
Keep it simple and answer with nothing but the number.

Return value of logP for input `C=C[C@@]1(C)CC(=O)[C@]2(O)[C@@]3(C)[C@@H](O)CCC(C)(C)[C@@H]3[C@H](O)[C@H](OC(C)=O)[C@@]2(C)O1` , no commentary. 3.12

* * *

Experiment: method code SF, from PMID: 718082
Assay endpoint: logP
Field format: numeric only.

Return value of logP for input CC(=O)Nc1c(I)c(COC2C(O)C(O)OC(CO)C2O)c(I)c(COC2C(O)C(O)OC(CO)C2O)c1I (stereo unspecified) , no commentary. -1.92
